Entry source: patent US7557244B2

Tested on: γ-secretase
PROTOCOL_SUMMARY: Screening for γ-secretase-modulating activity, Aβ 42 in SKNBE2 cells carrying APP 695-wild type
Type: cell-based
ASSAY_SETUP: read-out: WTAPP SKNBE2 Aβ 42 EC50
Method: Screening of the Compounds of the Invention for γ-Secretase-Modulating Activity Screening was carried out using SKNBE2 cells carrying the APP 695-wild type, grown in DMEM/NUT-mix F12 (HAM) provided by Gibco (cat no. 31330-38) containing 5% Serum/Fe supplemented with 1% non-essential amino acids. Cells were grown to near confluency. The screening was performed using the assay as described in Citron et al (1997) Nature Medicine 3: 67. […]
RECORDED_ENDPOINT: log10(EC50) (log10 of the value in nM)
Heads up, the numbers here are log10 of EC50 in nM units.

[ask] Provide measured log10(EC50) value, entry: CC(C)CC(C(=O)O)c1cc(Oc2cc(F)cc(C(F)(F)F)c2)cc(-c2ccc(C(F)(F)F)cc2)c1 (stereo not shown) [Compound 30]
[reply] 2.52

[ask] Provide measured log10(EC50) value, entry: CC(C)CC(C(=O)O)c1cc(Nc2ccc(F)cc2C(F)(F)F)cc(-c2ccc(C(F)(F)F)cc2)c1 (stereo not shown) [Compound 9]
[reply] 2.45

[ask] Provide measured log10(EC50) value, entry: CC(C)CC(C(=O)O)c1cc(Oc2ccc(C(F)(F)F)cc2)cc(-c2ccc(C(F)(F)F)cc2)c1 (stereo not shown) [Compound 16]
[reply] 3.35

[ask] Provide measured log10(EC50) value, entry: CC(C)CC(C(=O)O)c1cc(Nc2cc(F)cc(C(F)(F)F)c2)cc(-c2ccc(Cl)c(C(F)(F)F)c2)c1 (stereo not shown) [Compound 38]
[reply] 2.04

[ask] Provide measured log10(EC50) value, entry: CC(C)CC(C(=O)O)c1cc(Nc2ccc(C(F)(F)F)cc2)cc(-c2ccc(C(F)(F)F)cc2)c1 (stereo not shown) [Compound 11]
[reply] 2.70

[ask] Provide measured log10(EC50) value, entry: CC(C)CC(C(=O)O)c1cc(Nc2cc(C(F)(F)F)ccc2C(F)(F)F)cc(-c2cc(F)cc(C(F)(F)F)c2)c1 (stereo not shown) [Compound 40]
[reply] 2.52

[ask] Provide measured log10(EC50) value, entry: CC(C)CC(C(=O)O)c1cc(Oc2cc(F)cc(C(F)(F)F)c2)cc(-c2ccc(Cl)c(C(F)(F)F)c2)c1 (stereo not shown) [Compound 21]
[reply] 2.15

----------
Tested on: γ-secretase
PROTOCOL_SUMMARY: Screening for γ-secretase-modulating activity, Aβ 42 in SKNBE2 cells carrying APP 695-wild type
Assay type: cell-based
ASSAY_SETUP: read-out: WTAPP SKNBE2 Aβ 42 EC50
RECORDED_ENDPOINT: EC50 (nM)
Numbers only here, please. The scale is nM.

[ask] Provide measured EC50 value, entry: CC(C)CC(C(=O)O)c1cc(Oc2cc(F)cc(C(F)(F)F)c2)cc(-c2cc(C(F)(F)F)cc(C(F)(F)F)c2)c1 (centres unmarked)
[reply] 260

[ask] Provide measured EC50 value, entry: CC(C)CC(C(=O)O)c1cc(Oc2cccc(C(F)(F)F)c2)cc(-c2ccc(C(F)(F)F)cc2)c1 (centres unmarked)
[reply] 660

[ask] Provide measured EC50 value, entry: CC(C)CC(C(=O)O)c1cc(Nc2cc(C(F)(F)F)cc(C(F)(F)F)c2)cc(-c2ccc(C(F)(F)F)cc2)c1 (centres unmarked)
[reply] 300

[ask] Provide measured EC50 value, entry: CC(C)CC(C(=O)O)c1cc(Nc2ccc(C(C)C)cc2)cc(-c2ccc(C(F)(F)F)cc2)c1 (centres unmarked)
[reply] 290

[ask] Provide measured EC50 value, entry: CC(C)CC(C(=O)O)c1cc(Nc2cccc(C(F)(F)F)c2)cc(-c2ccc(C(F)(F)F)cc2)c1 (centres unmarked)
[reply] 410
